assay: MARISA ranolazine plasma concentration; assay type: in vivo; conditions: human, oral, 1000 mg BID, read-out: Ranolazine Plasma Concentration, Trough, mean (SD)
measurement_name: concentration at 12 h
Just the number plus its unit, please.

What value of concentration at 12 h has been reported for the following compound? COc1ccccc1OCC(O)CN1CCN(CC(=O)Nc2c(C)cccc2C)CC1 (racemic) 1950 ng/mL

* * *

experiment: MARISA ranolazine plasma concentration; format: in vivo; details: human, oral, 1500 mg BID, read-out: Ranolazine Plasma Concentration, Peak, mean (SD)
measurement_name: concentration at 4 h (ng/mL)
// units = ng/mL; emit number, no label

What value of concentration at 4 h has been reported for the following molecule? COc1ccccc1OCC(O)CN1CCN(CC(=O)Nc2c(C)cccc2C)CC1 (racemic) 3940

* * *

experiment: Peak and trough ranolazine plasma concentrations, IR regimens (Example 3); format: in vivo; settings: human, oral, 400 mg, All Patients, IR 400 mg bid, read-out: Ranolazine Plasma Concentration, Trough, mean (SD)
measurement_name: concentration at 8 h (ng/mL)
// units = ng/mL; emit number, no label

What value of concentration at 8 h has been reported for the following molecule? COc1ccccc1OCC(O)CN1CCN(CC(=O)Nc2c(C)cccc2C)CC1 (racemic) [Ranolazine] 235

* * *

assay: Peak and trough ranolazine plasma concentrations, IR regimens (Example 3); assay type: in vivo; conditions: female, human, oral, 400 mg, Females, IR 400 mg bid, read-out: Ranolazine Plasma Concentration, Trough, mean (SD)
measurement_name: concentration at 8 h (ng/mL)
// units = ng/mL; emit number, no label

What value of concentration at 8 h has been reported for the following compound? COc1ccccc1OCC(O)CN1CCN(CC(=O)Nc2c(C)cccc2C)CC1 (racemic) 235

* * *

assay: Peak and trough ranolazine plasma concentrations, IR regimens (Example 3); format: in vivo; details: female, human, oral, 267 mg, Females, IR 267 mg tid, read-out: Ranolazine Plasma Concentration, Peak, mean (SD)
measurement_name: concentration at 1 h (ng/mL)
// units = ng/mL; emit number, no label

What value of concentration at 1 h has been reported for the following compound? COc1ccccc1OCC(O)CN1CCN(CC(=O)Nc2c(C)cccc2C)CC1 (racemic) 1590

* * *

experiment: Peak and trough ranolazine plasma concentrations, IR regimens (Example 3); format: in vivo; conditions: female, human, oral, 400 mg, Females, IR 400 mg tid, read-out: Ranolazine Plasma Concentration, Trough, mean (SD)
measurement_name: concentration at 8 h (ng/mL)
// units = ng/mL; emit number, no label

What value of concentration at 8 h has been reported for the following molecule? COc1ccccc1OCC(O)CN1CCN(CC(=O)Nc2c(C)cccc2C)CC1 (racemic) 505

* * *

assay: Solubility of ranolazine in aqueous solutions by pH; type: physicochemical; conditions: aqueous solution, aqueous buffer; Solution pH 5.35
measurement_name: solubility (mg/mL)
// units = mg/mL; emit number, no label

What value of solubility has been reported for the following compound? COc1ccccc1OCC(O)CN1CCN(CC(=O)Nc2c(C)cccc2C)CC1 (racemic) 16.7

* * *

test: Peak and trough ranolazine plasma concentrations, IR regimens (Example 3); assay type: in vivo; conditions: male, human, oral, 267 mg, Males, IR 267 mg tid, read-out: Ranolazine Plasma Concentration, Peak, mean (SD)
measurement_name: concentration at 1 h (ng/mL)
// units = ng/mL; emit number, no label

What value of concentration at 1 h has been reported for the following molecule? COc1ccccc1OCC(O)CN1CCN(CC(=O)Nc2c(C)cccc2C)CC1 (racemic) [Ranolazine] 1260
